Assay system: CDK9/Cyclin K (Homo sapiens)
Sequence (P50750 whole entry): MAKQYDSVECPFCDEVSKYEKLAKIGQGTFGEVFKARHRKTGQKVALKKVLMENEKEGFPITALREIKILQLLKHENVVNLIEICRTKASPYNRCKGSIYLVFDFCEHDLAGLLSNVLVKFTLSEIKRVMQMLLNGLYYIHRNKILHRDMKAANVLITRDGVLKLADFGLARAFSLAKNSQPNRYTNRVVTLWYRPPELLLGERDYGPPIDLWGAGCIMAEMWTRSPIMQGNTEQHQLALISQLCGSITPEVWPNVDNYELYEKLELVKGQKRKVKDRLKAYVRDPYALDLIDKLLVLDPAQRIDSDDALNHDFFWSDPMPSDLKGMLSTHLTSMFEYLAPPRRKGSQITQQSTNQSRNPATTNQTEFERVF
Sequence (O75909 whole entry, further chain): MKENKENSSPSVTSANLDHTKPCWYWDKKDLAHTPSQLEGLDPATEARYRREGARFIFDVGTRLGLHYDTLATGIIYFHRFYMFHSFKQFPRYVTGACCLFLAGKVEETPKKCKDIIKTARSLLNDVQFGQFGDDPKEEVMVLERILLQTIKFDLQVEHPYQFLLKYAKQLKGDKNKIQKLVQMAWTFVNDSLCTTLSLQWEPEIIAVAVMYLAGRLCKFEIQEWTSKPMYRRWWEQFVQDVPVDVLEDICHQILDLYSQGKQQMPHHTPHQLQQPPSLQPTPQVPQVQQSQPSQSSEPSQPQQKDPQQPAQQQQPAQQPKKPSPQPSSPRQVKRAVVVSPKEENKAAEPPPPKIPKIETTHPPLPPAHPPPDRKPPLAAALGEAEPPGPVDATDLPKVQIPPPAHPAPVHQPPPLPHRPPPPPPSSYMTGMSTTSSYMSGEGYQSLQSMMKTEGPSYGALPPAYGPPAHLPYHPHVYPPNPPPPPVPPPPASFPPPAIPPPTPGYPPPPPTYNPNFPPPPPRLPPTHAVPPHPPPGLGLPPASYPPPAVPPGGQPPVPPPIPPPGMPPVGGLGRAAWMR
Assay details: Inhibition of CDK9/Cyclin K (unknown origin) using PDKtide as substrate incubated at 37 degreeC for 1 hr followed by incubation at room temperature for 5 mins by ADP-Glo reagent based luminescence assay
Rule: measured IC50 below 30 nM gets satisfied; anything equal to or greater than 30 nM gets not satisfied.

Check if IC50 falls below 30 nM for "COCCN[C@H]1CC[C@H](Nc2cc(-c3csc(OCC4CCOCC4)n3)c(Cl)cn2)CC1" .
satisfied

IC50 strictly < 30 nM for this molecule? "COCCCN[C@H]1CC[C@H](Nc2cc(-c3csc(NCC4CCOCC4)n3)c(Cl)cn2)CC1"
satisfied

Lab note: confirm whether the reported IC50 for this molecule is below 30 nM, equality not counting. molecule: "O=C(Nc1cc(-c2csc(NCC3CCOCC3)n2)c(Cl)cn1)c1ccc(F)cc1"
not satisfied

Is IC50 of "COCCN[C@H]1CC[C@H](Nc2cc(-c3csc(NCC4CCCC4)n3)c(Cl)cn2)CC1" strictly below 30 nM?
not satisfied

Criterion: IC50 strictly below 30 nM. Is it met by "COCCN[C@H]1CC[C@H](Nc2cc(-c3csc(NCC4(C#N)CCOCC4)n3)c(Cl)cn2)CC1" ?
satisfied
